For each record, write down the corresponding Time to Positivity (Days.Hours) Experiment 2a.
Test system: M. tuberculosis
Assay type: cell-based, Mycobacterium tuberculosis (laboratory strain H37Rv)
Settings: peptide 10 µg/mL; MGIT; diluted inoculum; technical repeat 2a; TB control (no peptide) 15.01
Where no end group is shown, it is not given here.
Give bare numbers, in Days.Hours.

Worked cases, answers included:
INSERT INTO assay_data (substance, value_reported) VALUES
  ('68: peptide from the authors'' library (RLRRIVVIRVAR) [Peptide 68]', 15.00),
  ('20: peptide from the authors'' library (KWKWWWRKI) [Peptide 20]', 14.01),
  ('64: peptide from the authors'' library (RLARIVVIRVAR) [Peptide 64]', 15.21),
  ('3: peptide from the authors'' library (WKWRVRVTI) [Peptide 3]', 14.22);

For every item in the list below, what is its measured Time to Positivity (Days.Hours) Experiment 2a?
1. 22: peptide from the authors' library (IRMRIRVLL) [Peptide 22]
2. RLARIVVIRVRR-CONH2 (RLARIVVIRVRR-NH2) [Peptide 70]
3. LLGDFFRKSKEKIGKEFKRIVQRIKDFLRNLVPRTES [Peptide 78, reference compound]
4. 5: peptide from the authors' library; same sequence as P8/Designed * (FFIYVWRRR) [Peptide 5]

(A)
15.19
14.22
14.15
14.06

###

For each record, write down the corresponding Time to Positivity (Days.Hours) Experiment 2a.
System: M. tuberculosis
Assay type: cell-based, Mycobacterium tuberculosis (laboratory strain H37Rv)
Settings: peptide 10 µg/mL; MGIT; diluted inoculum; technical repeat 2a; TB control (no peptide) 15.01
Where no end group is shown, it is not given here.
Numbers only, in Days.Hours.

Worked cases, answers included:
INSERT INTO measurements (substance, system, value_reported) VALUES
  ('49: peptide from the authors'' library (VRLRIRVRVIRK) [Peptide 49]', 'M. tuberculosis', 15.12),
  ('WKIVFWWRR-NH2 [Peptide 14]', 'M. tuberculosis', 13.23);

Pending substance:
The recorded Time to Positivity (Days.Hours) Experiment 2a for 67: peptide from the authors' library (RLWRIVVIRVAR) [Peptide 67] is 16.00

###

Tested on: M. tuberculosis
Type: cell-based, Mycobacterium tuberculosis (laboratory strain H37Rv)
Conditions: peptide 10 µg/mL; MGIT; diluted inoculum; technical repeat 2a; TB control (no peptide) 15.01
Where no end group is shown, it is not given here.
quantity_name: Time to Positivity (Days.Hours) Experiment 2a
Numbers only, in Days.Hours.

Worked cases, answers included:
INSERT INTO results (substance, system, value_reported) VALUES
  ('66: peptide from the authors'' library (RRARIVVIRVAR) [Peptide 66]', 'M. tuberculosis', 17.06),
  ('59: peptide from the authors'' library (ILKWKRKWWKWRR) [Peptide 59]', 'M. tuberculosis', 13.19),
  ('65: peptide from the authors'' library (RGARIVVIRVAR) [Peptide 65]', 'M. tuberculosis', 16.11);

For every item in the list below, what is its measured Time to Positivity (Days.Hours) Experiment 2a?
1. 61: peptide from the authors' library (ILKWKTKWWKWFR) [Peptide 61]
2. 9: peptide from the authors' library; same sequence as P9/Designed (KRRWRIWLV) [Peptide 9]
3. 62: peptide from the authors' library (ILKWKMFKWKWFR) [Peptide 62]
4. RRWRIVVIRVRR-CONH2 (RRWRIVVIRVRR-NH2) [Peptide 69]

(A)
1: 13.11; 2: 15.08; 3: 16.20; 4: 13.12

The recorded Time to Positivity (Days.Hours) Experiment 2a for 60: peptide from the authors' library (ILKWKIFKWKWFR) [Peptide 60] is 14.19

Measured values drawn from paper PMC10536189 for this set.
